# test_protocol: qHTS assay for small molecule activators of the heat shock response signaling pathway (AID 743210);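 further: HeLa cells with beta-lactamase reporter driven by heat shock elements; on the % scale 0 is the no-effect control and ±100 the full control effect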
# settings: HeLa HSE-bla reporter, beta-lactamase ratio, 5 h; series mostly up to 62.6 µM
Inconclusive results are not listed. Active and inactive are the calls of the source. The call rests on the fitted dose curve; in most records, active means well fitted activation curve with a large enough effect in the signal ratio in the repeat runs, with a control signal flat (not every such curve was filed as active); inconclusive means weak or mixed curves; inactive means flat fitted curve, though single readings scatter; the % refers to the signal ratio.
readout_label: activation

Example compounds with recorded activation:
compound=CC(C)CCOC(=O)CC(C)C readout_label=activation reported_value=inactive
compound=COCc1ccc(COC)cc1 readout_label=activation reported_value=inactive
compound=CCOC(=O)Nc1ccc2c(c1)N(C(=O)CCN1CCOCC1)c1ccccc1S2 readout_label=activation reported_value=inactive
compound="OCC(O)[C@@H](O)[C@H](O)[C@H](O)CO[C@H]1O[C@H](CO)[C@@H](O)[C@H](O)[C@H]1O (some centres not stated)" readout_label=activation reported_value=inactive
compound="C1C2OC2C2C1C1CC2C2OC12 (configuration not stated)" readout_label=activation reported_value=inactive
compound=N#CCN(CC#N)CCN(CC#N)CC#N readout_label=activation reported_value=inactive

get_value(item= "Nc1nc(F)nc2c1ncn2[C@@H]1O[C@H](CO)[C@@H](O)[C@@H]1O" , readout=activation) returns inactive

get_value(item= "CCCCCC[C@@H](CCC)C(=O)O" , readout=activation) returns inactive

get_value(item= "C=CC(=O)N1CCOCC1" , readout=activation) returns inactive

---

# system_name: Peroxisome proliferator-activated receptor gamma (Homo sapiens) (UniProt P37231)
# Sequence (P37231 whole entry, looked up): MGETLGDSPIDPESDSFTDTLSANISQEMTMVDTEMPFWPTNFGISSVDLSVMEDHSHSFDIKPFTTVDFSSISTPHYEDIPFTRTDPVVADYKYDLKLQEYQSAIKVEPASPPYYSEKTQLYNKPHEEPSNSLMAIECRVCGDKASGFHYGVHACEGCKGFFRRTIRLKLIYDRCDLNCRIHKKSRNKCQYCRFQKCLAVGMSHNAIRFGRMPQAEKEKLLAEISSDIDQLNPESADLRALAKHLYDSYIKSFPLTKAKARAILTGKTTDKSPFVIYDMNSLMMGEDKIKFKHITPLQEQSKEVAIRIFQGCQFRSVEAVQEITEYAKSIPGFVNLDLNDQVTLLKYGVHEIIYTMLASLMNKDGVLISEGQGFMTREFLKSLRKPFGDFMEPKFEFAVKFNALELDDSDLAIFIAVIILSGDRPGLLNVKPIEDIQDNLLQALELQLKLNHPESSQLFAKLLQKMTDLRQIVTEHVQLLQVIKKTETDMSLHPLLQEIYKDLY
# test_protocol: qHTS assay to identify small molecule agonists of the peroxisome proliferator-activated receptor gamma (PPARg) signaling pathway (AID 743094); further: on the % scale 0 is the no-effect control and ±100 the full control effect
# settings: HEK293H PPARg-UAS-bla, beta-lactamase FRET ratio, 17 h; series mostly up to 57 µM
Inconclusive results are not listed. Activity calls are given as the source filed them. The call rests on the fitted dose curve; in most records, active means well fitted activation curve with a large enough effect in the signal ratio in the repeat runs (not every such curve was filed as active); inconclusive means weak or mixed curves, or effect the other way; inactive means no such curve, though single readings can be large or run the other way; the % refers to the signal ratio.
readout_label: activation

Example compounds with recorded activation:
compound="CCCCCN(CCCCC)C(=O)C(CCC(=O)O)NC(=O)c1ccc(Cl)c(Cl)c1 (centres undefined)" reported_value=inactive
compound=CSc1ccc(C=O)cc1 reported_value=inactive
compound=CC(C)COC(=O)C(C)C reported_value=inactive
compound=CC(=O)O[C@H](CC(=O)[O-])C[N+](C)(C)C reported_value=inactive
compound=Nc1[nH]c(=O)ncc1F reported_value=inactive

For "C=C(C)C(=O)OCCCCCCCCCCCCCCCCCC" on Peroxisome proliferator-activated receptor gamma (Homo sapiens) (UniProt P37231), measured activation was inactive

For "C1COCCO1" on Peroxisome proliferator-activated receptor gamma (Homo sapiens) (UniProt P37231), measured activation was inactive

For CC(=O)NC(Cc1ccccc1)C(=O)O (centres undefined) on Peroxisome proliferator-activated receptor gamma (Homo sapiens) (UniProt P37231), measured activation was inactive

---

# system_name: Cytochrome P450 1A2 (Homo sapiens) (UniProt P05177)
# Sequence (P05177 whole entry, looked up): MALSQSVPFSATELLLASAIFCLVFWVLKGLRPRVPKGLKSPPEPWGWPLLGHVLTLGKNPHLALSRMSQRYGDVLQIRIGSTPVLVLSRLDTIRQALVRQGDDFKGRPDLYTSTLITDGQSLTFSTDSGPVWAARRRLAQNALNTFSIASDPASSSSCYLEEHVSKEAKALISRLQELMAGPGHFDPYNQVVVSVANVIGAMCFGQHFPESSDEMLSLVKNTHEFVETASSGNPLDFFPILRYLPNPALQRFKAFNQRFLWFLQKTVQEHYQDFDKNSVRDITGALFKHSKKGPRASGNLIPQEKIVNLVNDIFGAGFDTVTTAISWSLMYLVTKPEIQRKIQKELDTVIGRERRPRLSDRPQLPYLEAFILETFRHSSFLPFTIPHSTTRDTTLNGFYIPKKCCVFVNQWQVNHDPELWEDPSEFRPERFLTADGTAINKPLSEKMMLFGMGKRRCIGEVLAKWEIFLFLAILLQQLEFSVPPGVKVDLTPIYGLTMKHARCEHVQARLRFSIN
# test_protocol: Cytochrome P450 Family 1 Subfamily A Member 2 (CYP1A2) small molecule antagonists: luciferase reporter qHTS assay (AID 1671199); further: nearly all actives have a fitted effect of over 50% in size
# settings: P450-Glo CYP1A2 enzyme, luciferin luminescence, 1 h; series mostly up to 53 µM
Inconclusive results are not listed. Active and inactive are the calls of the source. Calls come from the whole dose curve; as a rule, active = well fitted inhibition curve with a large enough effect in the repeat runs; inconclusive = weak or mixed curves; inactive = no such curve, though single readings can be large or run the other way.
Select the correct class. Options are 1 = active, 0 = inactive and nothing else.

Example results:
compound=Cc1c(C)n(CCN(C)C)c2ccc(C(=O)OCCN(C)C)cc12 assigned_class=1
compound=CC(C)(O)Cc1ccccc1 assigned_class=0
compound=NS(=O)(=O)c1cc2c(cc1Cl)NC(CSCc1ccccc1)=NS2(=O)=O assigned_class=0
compound=COC(=O)CCCCCCCCC(=O)OC assigned_class=1
compound=CCOC(=O)Cn1c(=O)sc2cccc(Cl)c21 assigned_class=1

Request: Per the records of this test, what outcome belongs to "CCCCCCCCC=O" ?
Response: 0

Request: Per the records of this test, what outcome belongs to "Nc1[nH]c(=O)ncc1F" ?
Response: 0

---

# test_protocol: qHTS RealTime-Glo MT Cell Viability Assay in HEK293 cells - 24 hour (AID 1224886); further: potency means the concentration at half of the fitted maximal effect; nearly all actives have a fitted effect of over 50% in size
# settings: RealTime-Glo luminescence; series mostly up to 76.8 µM
Results filed as inconclusive are left out. The source made the active and inactive calls. The call rests on the fitted dose curve; in most records, active means well fitted cell-killing curve with a large enough effect in the repeat runs; inconclusive means weak or mixed curves, or effect the other way; inactive means flat fitted curve, though single readings scatter.
readout_label: Potency

line_notation=c1cc(CN2CCCCC2)cc(OCCCNc2nc3ccccc3s2)c1 reported_value="9.52 µM (active)"
line_notation=CSc1nc(NC2CC2)nc(NC(C)(C)C)n1 reported_value="21.9 µM (active)"
line_notation=CN(C)C(=O)C(CCN1CCC(O)(c2ccc(Cl)cc2)CC1)(c1ccccc1)c1ccccc1 reported_value="9.52 µM (active)"

From here, focus on the item given below.
get_value(item= "CCn1c(=O)c2c(nc(/C=C/c3ccc(OC)c(OC)c3)n2C)n(CC)c1=O" , readout=Potency) returns 1.69 µM (active)

---

# test_protocol: qHTS assay to identify aromatase inhibitors - cell viability counter screen (AID 743084);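 further: cells stimulated with testosterone during compound exposure; on the % scale 0 is the no-effect control and ±100 the full control effect; nearly all actives have a fitted effect of over 55% in size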
# settings: MCF-7 aro ERE viability, CellTiter-Fluor, 24 h; series mostly up to 70.3 µM
Records with an inconclusive call do not appear. Calls of active or inactive are those of the source. Calls follow the shape of the dose curve; as a rule, active = well fitted cell-killing curve with a large enough effect in the repeat runs; inconclusive = weak or mixed curves, or effect the other way; inactive = no such curve, though single readings can be large or run the other way.
readout_label: activity change, negative = cytotoxicity

Example compounds with recorded activity change, negative = cytotoxicity:
compound=Nc1[nH]c(=O)ncc1F readout_label="activity change, negative = cytotoxicity" reported_value=inactive
compound="CCC(C)OC(=O)N1CCCCC1CCO (configuration not stated)" readout_label="activity change, negative = cytotoxicity" reported_value=inactive
compound=CO[Si](OC)(OC)OC readout_label="activity change, negative = cytotoxicity" reported_value=inactive
compound="O=C1C(CCS(=O)c2ccccc2)C(=O)N(c2ccccc2)N1c1ccccc1 (configuration not stated)" readout_label="activity change, negative = cytotoxicity" reported_value=inactive
compound=CCO[Si](CCCN=C=O)(OCC)OCC readout_label="activity change, negative = cytotoxicity" reported_value=inactive
compound="C=C(C)C(=O)OCCC(C)OC(=O)C(=C)C (configuration not stated)" readout_label="activity change, negative = cytotoxicity" reported_value=inactive
compound="CCCCCCCCCCCCCCCCCCOCC(O)CO (configuration not stated)" readout_label="activity change, negative = cytotoxicity" reported_value=inactive
compound="CCCCCCC(CCCCCCCCCCC(=O)OCC(COC(C)=O)OC(C)=O)OC(C)=O (configuration not stated)" readout_label="activity change, negative = cytotoxicity" reported_value=inactive
compound=CCCCCCC(=O)OCC readout_label="activity change, negative = cytotoxicity" reported_value=inactive
compound=Cc1nc(-c2ccc(OCC(C)C)c(C#N)c2)sc1C(=O)O readout_label="activity change, negative = cytotoxicity" reported_value=inactive

get_value(item= "COC(=O)[C@H]1[C@H]2C[C@@H]3c4[nH]c5cc(OC)ccc5c4CCN3C[C@H]2C[C@@H](OC(=O)COc2ccc(OC)cc2)[C@@H]1OC" , readout=activity change, negative = cytotoxicity) returns inactive

get_value(item= "O=S(=O)(c1cccc2cnccc12)N1CCCNCC1" , readout=activity change, negative = cytotoxicity) returns inactive

---

# test_protocol: qHTS assay to test for compound auto fluorescence at 590 nm (red) in HEK293 cells (AID 720679); further: on the % scale 0 is the no-effect control and ±100 the full control effect
# settings: red autofluorescence 540/590 nm; series mostly up to 91.3 µM
Calls of active or inactive are those of the source. Calls follow the shape of the dose curve; as a rule, active = well fitted curve in the direction sought with a large enough effect in the repeat runs; inconclusive = weak or mixed curves; inactive = flat fitted curve, though single readings scatter.
readout_label: fluorescence, % of fluorescent control

line_notation=OC[C@H]1O[C@@H]2O[C@H]3[C@H](O)[C@@H](O)[C@@H](O[C@H]4[C@H](O)[C@@H](O)[C@@H](O[C@H]5[C@H](O)[C@@H](O)[C@@H](O[C@H]6[C@H](O)[C@@H](O)[C@@H](O[C@H]7[C@H](O)[C@@H](O)[C@@H](O[C@H]8[C@H](O)[C@@H](O)[C@@H](O[C@H]9[C@H](O)[C@@H](O)[C@@H](O[C@H]1[C@H](O)[C@H]2O)O[C@@H]9CO)O[C@@H]8CO)O[C@@H]7CO)O[C@@H]6CO)O[C@@H]5CO)O[C@@H]4CO)O[C@@H]3CO reported_value=inactive
line_notation=O=C(O)c1ccccc1-c1ccc(C(F)(F)F)cc1 reported_value=inactive

---

# test_protocol: qHTS assay to identify small molecule antagonists of the androgen receptor (AR) signaling pathway - cell viability counter screen (AID 743033; further: on the % scale 0 is the no-effect control and ±100 the full control effect; nearly all actives have a fitted effect of over 45% in size)
# settings: AR-bla HEK293 viability, CellTiter-Glo luminescence, 16 h; series mostly up to 58.5 µM
Records with an inconclusive call do not appear. Calls of active or inactive are those of the source. The call rests on the fitted dose curve; in most records, active means well fitted cell-killing curve with a large enough effect in the repeat runs; inconclusive means weak or mixed curves; inactive means no such curve, though single readings can be large or run the other way.
readout_label: activity change, negative = cytotoxicity

Example compounds with recorded activity change, negative = cytotoxicity:
compound=COCCOC(=O)CC#N readout_label="activity change, negative = cytotoxicity" reported_value=inactive
compound="O=C(O)C(O)[C@H](O)[C@@H](O)[C@H](O)[C@H](O)CO (stereo partly drawn)" readout_label="activity change, negative = cytotoxicity" reported_value=inactive
compound=CCCCCCCCCCCCI readout_label="activity change, negative = cytotoxicity" reported_value=inactive
compound=C=C(C)C(=O)NCCCN(C)C readout_label="activity change, negative = cytotoxicity" reported_value=inactive
compound=Nc1ccc2cc(S(=O)(=O)O)ccc2c1 readout_label="activity change, negative = cytotoxicity" reported_value=inactive

get_value(item= "CSc1nc(NC2CC2)nc(NC(C)(C)C)n1" , readout=activity change, negative = cytotoxicity) returns inactive

get_value(item= "CCCCC=O" , readout=activity change, negative = cytotoxicity) returns inactive

get_value(item= "CCO[Si](C)(OCC)OCC" , readout=activity change, negative = cytotoxicity) returns inactive
